Tested on: TTR
procedure-text: TTR editing in HUH7 cells transfected with Spy Cas9 mRNA and dgRNAs (Table 5)
Assay type: cell-based, human
condition-label: HUH7 cells co-transfected with Spy Cas9 mRNA (SEQ ID NO:2) and dgRNAs
Entry flag: MET if Avg % Deletion reaches 30%; NOT MET if it does not.

- input-sequence: "CCUCCUCUGCCUUGCUGGAC (tested as dual guide RNA, chemistry not given here) [CR003336]"
  cat: "NOT MET"
- input-sequence: "AGGCAGUCCUGCCAUCAAUG (tested as dual guide RNA, chemistry not given here) [CR003348]"
  cat: "NOT MET"
- input-sequence: "ACCUCUGCAUGCUCAUGGAA (tested as dual guide RNA, chemistry not given here) [CR003371]"
  cat: "MET"
- input-sequence: "AGCCUUUCUGAACACAUGCA (tested as dual guide RNA, chemistry not given here) [CR003351]"
  cat: "NOT MET"
- input-sequence: "AUGCAGCUCUCCAGACUCAC (tested as dual guide RNA, chemistry not given here) [CR003358]"
  cat: "NOT MET"
- input-sequence: "ACACAAAUACCAGUCCAGCA (tested as dual guide RNA, chemistry not given here) [CR003339]"
  cat: "NOT MET"

====

# reported Avg % Insert; entries follow
Test system: TTR
procedure-text: TTR editing in primary cyno hepatocytes electroporated with Spy Cas9 protein and dgRNAs (Tables 10, 11)
Format: cell-based, cynomolgus monkey
condition-label: Table 10; primary cyno hepatocytes electroporated with Spy Cas9 protein (RNP) and dgRNAs
readout-type: Avg % Insert

- input-sequence: "AUAGGAGUAGGGGCUCAGCA (tested as dual guide RNA, chemistry not given here) [CR003383]"
  result: "4.31%"
- input-sequence: "AGCCGUGGUGGAAUAGGAGU (tested as dual guide RNA, chemistry not given here) [CR005299]"
  result: "13.23%"
- input-sequence: "GCAUGGGCUCACAACUGAGG (tested as dual guide RNA, chemistry not given here) [CR003362]"
  result: "4.36%"
- input-sequence: "CAUUGAUGGCAGGACUGCCU (tested as dual guide RNA, chemistry not given here) [CR003347]"
  result: "72.15%"
- input-sequence: "CCCCUACUCCUAUUCCACCA (tested as dual guide RNA, chemistry not given here) [CR003385]"
  result: "26.84%"
- input-sequence: "GCUGCAUGGGCUCACAACUG (tested as dual guide RNA, chemistry not given here) [CR003361]"
  result: "4.46%"
- input-sequence: "AUACCAGUCCAGCAAGGCAG (tested as dual guide RNA, chemistry not given here) [CR003338]"
  result: "44.89%"
- input-sequence: "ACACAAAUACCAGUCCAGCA (tested as dual guide RNA, chemistry not given here) [CR003339]"
  result: "4.93%"

====

# reported Avg % Edit; entries follow
System: TTR
procedure-text: TTR editing in primary human hepatocytes electroporated with Spy Cas9 protein loaded with dgRNAs (Table 7)
Type: cell-based
condition-label: dgRNA electroporated with Spy Cas9 protein (RNP)

- input-sequence: "GGCUGUCGUCACCAAUCCCA (tested as dual guide RNA, chemistry not given here) [CR003391]"
  Avg % Edit / %: 29.77
- input-sequence: "GGGGCUCAGCAGGGCGGCAA (tested as dual guide RNA, chemistry not given here) [CR003381]"
  Avg % Edit / %: 6.20
- input-sequence: "UGUAGAAGGGAUAUACAAAG (tested as dual guide RNA, chemistry not given here) [CR003365]"
  Avg % Edit / %: 42.37
- input-sequence: "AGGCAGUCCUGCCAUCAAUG (tested as dual guide RNA, chemistry not given here) [CR003348]"
  Avg % Edit / %: 28.53
- input-sequence: "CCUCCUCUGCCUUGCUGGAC (tested as dual guide RNA, chemistry not given here) [CR003336]"
  Avg % Edit / %: 39.17
- input-sequence: "CUUCUCUACACCCAGGGCAC (tested as dual guide RNA, chemistry not given here) [CR003342]"
  Avg % Edit / %: 32.77
- input-sequence: "GGCCGUGCAUGUGUUCAGAA (tested as dual guide RNA, chemistry not given here) [CR005304]"
  Avg % Edit / %: 67.00

Source: patent US11795460B2
